Data provenance: patent US20100105694A1

- TESTED TARGET: human adrenergic-α2A receptor (Homo sapiens)
- Construct: expressed in transfected cells; host or cells: CHO cells, stably transfected; membranes
- METHOD: Radioligand binding experiment for hα2A receptor ([3H]raulwolscine, CHO cell membranes)
- ASSAY CONDITIONS: [3H]raulwolscine 1 nM, membranes of CHO cells transfected with human α2A receptor; read-out: h-α2A pIC50 (converted)
Please provide measured IC50 for the entries that follow.
Please respond with the number in nM and leave the unit unwritten.

Write down the reported IC50 of CC(C)(C)OC(=O)NCc1ccc(Cn2ccnc(N3CCN(Cc4cccc(-c5ccccc5)c4)CC3)c2=O)cc1 , test system: human adrenergic-α2A receptor (Homo sapiens).
200

Find IC50 (human adrenergic-α2A receptor (Homo sapiens)) for the entry COC(=O)Cn1ccnc(NC2CCN(CCCc3ccccc3)CC2)c1=O
3980

IC50 of NCc1ccc(Cn2ccnc(NC3CCN(Cc4ccccc4)CC3)c2=O)cc1 on human adrenergic-α2A receptor (Homo sapiens)?
1000

Give recorded IC50 with human adrenergic-α2A receptor (Homo sapiens) for the following compound: O=c1c(N2CCN(CCc3ccccc3)CC2)nccn1Cc1ccc(-c2ccccc2)cc1
794

Query IC50 on human adrenergic-α2A receptor (Homo sapiens) for O=C(Cn1ccnc(NC2CCN(CC(c3ccccc3)c3ccccc3)CC2)c1=O)c1ccccc1
2510

Find the measured IC50: item NCc1ccc(CN(c2nccn(Cc3ccc(CN)cc3)c2=O)C2CCN(Cc3ccccc3)CC2)cc1 , target or system human adrenergic-α2A receptor (Homo sapiens).
1000

Kindly state the measured IC50 obtained for NCc1ccc(Cn2ccnc(N3CCN(Cc4cccc(-c5ccccc5)c4)CC3)c2=O)cc1 with human adrenergic-α2A receptor (Homo sapiens).
79.4

Please tell me: IC50 of O=c1c(NC2CCN(CC(c3ccccc3)c3ccccc3)CC2)nccn1Cc1ccccc1Br , system human adrenergic-α2A receptor (Homo sapiens)?
1000

----------
- TESTED TARGET: human adrenergic-α2A receptor (Homo sapiens, UniProt P08913)
- Construct: expressed in transfected cells; host or cells: CHO cells, stably transfected; membranes
- Sequence (P08913 whole entry): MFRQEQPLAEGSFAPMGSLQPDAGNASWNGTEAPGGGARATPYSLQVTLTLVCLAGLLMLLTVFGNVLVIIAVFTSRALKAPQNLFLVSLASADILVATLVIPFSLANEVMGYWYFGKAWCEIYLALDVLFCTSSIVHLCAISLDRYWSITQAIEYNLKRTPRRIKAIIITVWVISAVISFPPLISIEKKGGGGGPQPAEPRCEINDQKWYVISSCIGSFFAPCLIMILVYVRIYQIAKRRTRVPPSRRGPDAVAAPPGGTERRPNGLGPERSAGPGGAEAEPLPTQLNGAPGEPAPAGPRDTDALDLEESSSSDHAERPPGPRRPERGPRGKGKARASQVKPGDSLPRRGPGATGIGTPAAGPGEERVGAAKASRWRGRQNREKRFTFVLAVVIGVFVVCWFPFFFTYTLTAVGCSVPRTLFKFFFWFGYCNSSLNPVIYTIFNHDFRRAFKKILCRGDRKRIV
- METHOD: Radioligand binding experiment for hα2A receptor ([3H]raulwolscine, CHO cell membranes)
- ASSAY CONDITIONS: [3H]raulwolscine 1 nM, membranes of CHO cells transfected with human α2A receptor; read-out: h-α2A pIC50 (converted)
Consider the following compounds; for each one, report its log10(IC50).
Scale: log10; quantity: IC50; unit before log: nM

Form field: log10(IC50) recorded for NCc1ccc(Cn2ccnc(NC3CCN(Cc4ccc(-c5ccccc5)cc4)CC3)c2=O)cc1 [Compound 1-1] with human adrenergic-α2A receptor (Homo sapiens, UniProt P08913) (enter value)
2.40

Notebook: pull reported log10(IC50) for human adrenergic-α2A receptor (Homo sapiens, UniProt P08913), entry O=c1c(NC2CCN(CC(c3ccccc3)c3ccccc3)CC2)nccn1CCN1CCCCC1 [Compound 9-5]
3.40

# value lookup — system human adrenergic-α2A receptor (Homo sapiens, UniProt P08913), readout log10(IC50), item O=c1c(NC2CCN(Cc3ccccc3)CC2)nccn1CCN1CCCCC1 [Compound 5-4]
3.50

Kindly state the measured log10(IC50) obtained for CSCCn1ccnc(NC2CCN(CCCc3ccccc3)CC2)c1=O [Compound 7-15] with human adrenergic-α2A receptor (Homo sapiens, UniProt P08913).
3.00

I'm curious: which log10(IC50) was measured for NCc1ccc(Cn2ccnc(N3CCC(c4ccccc4)CC3)c2=O)cc1 [Compound 4-2] tested on human adrenergic-α2A receptor (Homo sapiens, UniProt P08913)?
2.70

Query log10(IC50) on human adrenergic-α2A receptor (Homo sapiens, UniProt P08913) for NCc1ccc(Cn2ccnc(NC3CCN(CCCc4ccccc4)CC3)c2=O)cc1 [Compound 7-1]
2.50

Identify the measured log10(IC50) of O=c1c(NC2CCN(CCCc3ccccc3)CC2)nccn1CCN1CCCCC1 [Compound 7-4] for human adrenergic-α2A receptor (Homo sapiens, UniProt P08913).
3.20

Provide the documented log10(IC50) with human adrenergic-α2A receptor (Homo sapiens, UniProt P08913) as the system for O=c1c(NC2CCN(CC(c3ccccc3)c3ccccc3)CC2)nccn1Cc1ccc(Br)cc1 [Compound 9-9]
3.10

// fetch human adrenergic-α2A receptor (Homo sapiens, UniProt P08913) log10(IC50) for COc1ccc(-c2nnc(Cn3ccnc(N4CCN(CCc5ccccc5)CC4)c3=O)o2)cc1 [Compound 10-12]
3.10

Under human adrenergic-α2A receptor (Homo sapiens, UniProt P08913): log10(IC50) value of CN(CCc1ccccc1)C1CCN(c2nccn(CCCN3C(=O)c4ccccc4C3=O)c2=O)CC1 [Compound 8-1] ?
3.00

// lookup log10(IC50) | system=human adrenergic-α2A receptor (Homo sapiens, UniProt P08913) | key= NCCCn1ccnc(NC2CCN(CC(c3ccccc3)c3ccccc3)CC2)c1=O [Compound 9-1]
3.00

Reported log10(IC50) for human adrenergic-α2A receptor (Homo sapiens, UniProt P08913), given NCc1ccc(Cn2ccnc(NC3CCN(Cc4ccc(OCc5ccccc5)cc4)CC3)c2=O)cc1 [Compound 11-1] ?
2.40

human adrenergic-α2A receptor (Homo sapiens, UniProt P08913) / log10(IC50) / CC(C)(C)OC(=O)NCc1ccc(Cn2ccnc(N3CCC(c4ccccc4)CC3)c2=O)cc1 [Compound 4-3] : value?
2.30

Hello, I am looking for reported log10(IC50) with human adrenergic-α2A receptor (Homo sapiens, UniProt P08913) for CC(C)(C)OC(=O)NCc1ccc(Cn2ccnc(NC3CCN(CCCc4ccccc4)CC3)c2=O)cc1 [Compound 7-3] . Could you help?
3.20

Kindly state the measured log10(IC50) obtained for CC(C)(C)OC(=O)NCCCn1ccnc(NC2CCN(CCCc3ccccc3)CC2)c1=O [Compound 7-2] with human adrenergic-α2A receptor (Homo sapiens, UniProt P08913).
2.90

// fetch human adrenergic-α2A receptor (Homo sapiens, UniProt P08913) log10(IC50) for O=c1c(N2CCN(Cc3cccc(-c4ccccc4)c3)CC2)nccn1CC=Cc1ccccc1 [Compound 3-6]
2.90

Quick check: log10(IC50) on human adrenergic-α2A receptor (Homo sapiens, UniProt P08913), item O=C1c2ccccc2C(=O)N1CCCn1ccnc(NC2CCN(Cc3ccccc3)CC2)c1=O [Compound 5-5] ?
3.70

----------
- TESTED TARGET: 5HT-Transporter (Homo sapiens, UniProt P31645)
- Construct: Human platelet membranes (Oceanix Biosciences Corporation, Hanover, Md., USA) were thawed; tissue Oceanix Biosciences Corporation; host or cells: human platelet membranes
- Sequence (P31645 whole entry): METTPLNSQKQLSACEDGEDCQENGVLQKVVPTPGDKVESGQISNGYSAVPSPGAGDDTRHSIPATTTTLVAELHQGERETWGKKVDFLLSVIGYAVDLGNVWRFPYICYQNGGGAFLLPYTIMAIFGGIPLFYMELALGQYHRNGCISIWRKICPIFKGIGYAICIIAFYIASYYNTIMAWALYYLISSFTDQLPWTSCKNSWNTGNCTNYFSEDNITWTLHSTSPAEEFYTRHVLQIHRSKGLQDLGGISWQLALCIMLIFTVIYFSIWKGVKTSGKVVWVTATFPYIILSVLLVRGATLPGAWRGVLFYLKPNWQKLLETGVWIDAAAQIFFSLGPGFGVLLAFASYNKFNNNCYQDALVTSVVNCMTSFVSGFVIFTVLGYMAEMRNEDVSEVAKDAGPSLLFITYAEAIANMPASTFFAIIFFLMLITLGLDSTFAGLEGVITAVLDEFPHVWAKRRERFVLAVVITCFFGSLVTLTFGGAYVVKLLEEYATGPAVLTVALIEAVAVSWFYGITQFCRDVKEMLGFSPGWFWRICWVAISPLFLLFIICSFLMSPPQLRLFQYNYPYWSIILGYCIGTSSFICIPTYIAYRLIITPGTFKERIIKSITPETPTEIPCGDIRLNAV
- METHOD: Binding experiment for the 5HT-transporter ([3H]paroxetine, human platelet membranes)
- ASSAY CONDITIONS: [3H]paroxetine 0.5 nM, read-out: h-5HTT pIC50 (converted)
What log10 IC50 was measured for each of the following?
# log10 transformed; quantity=IC50; unit=µM

log10 IC50 lookup needed for CSCCn1ccnc(NC2CCN(CCCc3ccccc3)CC2)c1=O , thanks.
0.50

Using the record for O=c1c(N2CCN(CCc3ccccc3)CC2)nccn1Cc1ccc2ccccc2c1 , report its log10 IC50.
0.50

May I ask what log10 IC50 has been recorded for O=C1c2ccccc2C(=O)N1CCCn1ccnc(N2CCN(Cc3ccc(-c4ccccc4)cc3)CC2)c1=O ?
-0.70

May I ask what log10 IC50 has been recorded for O=c1c(NC2CCN(Cc3ccc(-c4ccccc4)cc3)CC2)nccn1Cc1ccccc1Br ?
-0.40

Return reported log10 IC50; argument: O=c1c(NC2CCN(CC(c3ccccc3)c3ccccc3)CC2)nccn1Cc1ccc(Br)cc1
0.80

Form field: reported log10 IC50 of O=c1c(NC2CCN(Cc3ccc(-c4ccccc4)cc3)CC2)nccn1Cc1cccc(Br)c1
0.00

What measured log10 IC50 goes with NCc1ccc(Cn2ccnc(NC3CCN(CC(c4ccccc4)c4ccccc4)CC3)c2=O)cc1 ?
0.40

Form field: reported log10 IC50 of NCc1ccc(Cn2ccnc(NC3CCN(CCCc4ccccc4)CC3)c2=O)cc1
-0.10

Which log10 IC50 value belongs to O=c1c(N2CCN(CCc3ccccc3)CC2)nccn1C/C=C/c1ccccc1 ?
0.70

Find the recorded log10 IC50 belonging to O=C(Cn1ccnc(NC2CCN(CCCc3ccccc3)CC2)c1=O)c1ccccc1 and report it.
0.60

Item O=c1c(NC2CCN(CCCc3ccccc3)CC2)nccn1Cc1cccc(Br)c1 has what recorded log10 IC50?
0.40

Requested field: log10 IC50. Item: O=c1c(N2CCN(Cc3cccc(-c4ccccc4)c3)CC2)nccn1CC=Cc1ccccc1
0.70

Fill blank: measured log10 IC50 of the molecule O=c1c(N2CCN(CCc3ccccc3)CC2)nccn1Cc1ccc(-c2ccccc2)cc1 is ____.
0.70

Endpoint output: log10 IC50 of O=C1c2ccccc2C(=O)N1CCCn1ccnc(NC2CCN(CC(c3ccccc3)c3ccccc3)CC2)c1=O . Value?
0.80

Which measured log10 IC50 value corresponds to COc1ccc(-c2nnc(Cn3ccnc(N4CCN(Cc5cccc(-c6ccccc6)c5)CC4)c3=O)o2)cc1 ?
0.80

Value lookup for log10 IC50; key = O=C1c2ccccc2C(=O)N1CCCn1ccnc(NC2CCN(Cc3ccccc3)CC2)c1=O
0.60

Consider the molecule shown here: CC(C)(C)OC(=O)NCc1ccc(Cn2ccnc(N3CCN(Cc4cccc(-c5ccccc5)c4)CC3)c2=O)cc1 What is its recorded log10 IC50?
0.80
